Consider the following molecules; for each one, report its pEC50.
Target: HIF-2α (Homo sapiens, UniProt Q99814)
Construct: endogenous in cells
Sequence (Q99814 whole entry): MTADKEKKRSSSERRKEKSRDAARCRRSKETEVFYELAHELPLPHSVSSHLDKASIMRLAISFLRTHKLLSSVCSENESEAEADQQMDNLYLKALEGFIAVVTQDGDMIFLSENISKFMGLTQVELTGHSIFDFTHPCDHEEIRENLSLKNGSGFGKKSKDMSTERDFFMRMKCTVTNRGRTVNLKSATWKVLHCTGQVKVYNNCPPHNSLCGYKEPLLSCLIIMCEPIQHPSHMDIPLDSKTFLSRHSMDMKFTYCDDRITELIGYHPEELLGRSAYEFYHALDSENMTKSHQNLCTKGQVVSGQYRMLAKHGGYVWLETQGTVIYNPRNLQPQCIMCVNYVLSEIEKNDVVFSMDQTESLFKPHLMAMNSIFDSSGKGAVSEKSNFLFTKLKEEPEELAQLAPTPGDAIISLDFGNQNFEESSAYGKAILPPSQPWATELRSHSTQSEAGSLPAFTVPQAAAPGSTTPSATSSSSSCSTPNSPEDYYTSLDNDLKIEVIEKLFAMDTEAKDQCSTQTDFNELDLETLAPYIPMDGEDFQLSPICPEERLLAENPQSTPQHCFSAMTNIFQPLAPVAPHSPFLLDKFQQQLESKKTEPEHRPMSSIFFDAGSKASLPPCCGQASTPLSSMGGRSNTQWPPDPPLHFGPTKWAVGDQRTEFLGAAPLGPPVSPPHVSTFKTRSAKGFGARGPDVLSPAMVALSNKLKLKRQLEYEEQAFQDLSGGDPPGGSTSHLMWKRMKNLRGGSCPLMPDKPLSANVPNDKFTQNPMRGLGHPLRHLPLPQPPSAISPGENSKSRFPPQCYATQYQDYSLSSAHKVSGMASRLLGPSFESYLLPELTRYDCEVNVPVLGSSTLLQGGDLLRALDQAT
Assay: VEGF ELISA assay: VEGF expression in 786-O cells
Conditions: VEGF concentration in culture medium by ELISA, compounds from 10 uM down to 1 nM, treated twice, medium collected 24 hours after second treatment
Please express pEC50 as -log10 of the molar concentration.

Task: I'd like to know its pEC50. The molecule in question is N#Cc1cc(F)cc(Oc2ccc3c(c2Cl)[S+]([O-])C(F)(F)C3(F)F)c1 (stereo not shown)
Output: 6.62

Task: Dear colleague, I am looking for the recorded pEC50 of the following molecule: [O-][S@@+]1c2c(ccc(Oc3cc(F)cc(F)c3)c2C(F)F)[C@H](F)C1(F)F (single isomer, unassigned)
Output: 6.01

Task: Returns the measured pEC50 for the input molecule. Input: N#Cc1cc(F)cc(Oc2ccc3c(c2C#N)[S+]([O-])C(F)(F)C3(F)F)c1 (stereo not shown)
Output: 6.72

Task: Data request, read-out pEC50, for N#Cc1cncc(Oc2ccc3c(c2C(F)F)[S+]([O-])C(F)(F)C3(F)F)c1 (stereo not shown)
Output: 5.62

----------
Target: HIF-2α (Homo sapiens, UniProt Q99814)
Construct: endogenous in cells
Experiment: VEGF ELISA assay: VEGF expression in 786-O cells
Conditions: VEGF concentration in culture medium by ELISA, compounds from 10 uM down to 1 nM, treated twice, medium collected 24 hours after second treatment
pEC50: −log10 of the molar value.
Please mark condition met if the recorded pEC50 is equal to or greater than 7, and condition not met if it falls below.

Task: hey, is pEC50 for this one >= 7? [O-][S+]1c2c(ccc(Oc3cncc(F)c3)c2C(F)F)C(F)(F)C1(F)F (centres unmarked)
Output: condition not met

Task: Hi, just wondering whether [O-][S@+]1c2c(ccc(Oc3cc(F)cc(Cl)c3)c2C(F)F)[C@H](F)C1(F)F (single isomer, unassigned) [Compound 12c] shows pEC50 of 7 or higher.
Output: condition met

Task: Has N#Cc1cc(F)cc(Oc2ccc3c(c2C(F)F)[S+]([O-])C(F)(F)C3=O)c1 (centres unmarked) a recorded pEC50 greater than or equal to 7?
Output: condition not met

Task: Tell me whether pEC50 is at least 7 here: [O-][S+]1c2c(ccc(Oc3cncc(Cl)c3)c2C(F)F)C(F)(F)C1(F)F (centres unmarked)
Output: condition not met

Task: State whether the measured pEC50 reaches 7, counting equality as reaching it, for [O-][S@@+]1c2c(ccc(Oc3cc(F)cc(Cl)c3)c2C(F)F)[C@@H](F)C1(F)F (single isomer, unassigned) [Compound 12d]
Output: condition not met

Task: Reported pEC50 at or above 7? N#Cc1cc(F)cc(Oc2ccc3c(c2C(F)F)[S+]([O-])C(F)(F)C3(F)F)c1 (single isomer, unassigned) [Compound 13a]
Output: condition met

Task: Is it the case that `N#Cc1cc(F)cc(Oc2ccc3c(c2Cl)S(=O)(=O)C(F)(F)C3(F)F)c1` has pEC50 reaching or exceeding 7?
Output: condition not met

----------
Molecular target: HIF-2α (Homo sapiens)
Construct: endogenous in cells
Assay: VEGF ELISA assay: VEGF expression in 786-O cells
Conditions: VEGF concentration in culture medium by ELISA, compounds from 10 uM down to 1 nM, treated twice, medium collected 24 hours after second treatment
Would you mind telling me the reported EC50 of each entry?
Numbers only here, please. The scale is nM.

Task: For the molecule [O-][S@+]1c2c(ccc(Oc3cc(F)cc(F)c3)c2C(F)F)[C@H](F)C1(F)F (single isomer, unassigned) , what EC50 is on record?
Output: 74

Task: Recorded EC50 for [O-][S@@+]1c2c(ccc(Oc3cc(F)cc(F)c3)c2C(F)F)[C@@H](F)C1(F)F (single isomer, unassigned) , please?
Output: 3270

Task: Consider the molecule shown here: [O-][S@+]1c2c(ccc(Oc3cc(F)cc(F)c3)c2C(F)F)[C@@H](F)C1(F)F (single isomer, unassigned) What is its recorded EC50?
Output: 1200
